pIC50: −log10 of the molar value.
pIC50 for HPK1 (Homo sapiens (Human), UniProt Q92918), merged from several publications.

Guide cases for pIC50, answers given:
>>> value_measured("COc1cc2c(cc1Nc1ncc(C(N)=O)c(Nc3cccc4c3CCN(C)C4)n1)CN(C)CC2")
10.05
>>> value_measured("O=C1NCc2c(-c3cnc4cc(F)ccn34)ccc(Nc3ccc(C4CCOCC4)cn3)c21")
"> 7.00"
>>> value_measured("C/C(Nc1ccn(C(C)C)n1)=C1/C(=O)Nc2cnc(-c3cnccc3C)cc21")
"7.00 to 7.30"
>>> value_measured("CC(C)n1ncc2c(N3CC[C@@H](CN)C3)c(NC(=O)c3ccc(=O)n(-c4c(F)cccc4F)n3)cc(F)c21")
"> 7.00"
>>> value_measured("CN(C)C[C@@H]1CN(c2ccc(Nc3ccc(-c4cnc5cc(Cl)ccn45)c4c3C(=O)NC4)nc2)CCO1")
"> 7.00"

**Q:** Param item = Cc1nc2c(N3C[C@H](N)C(F)(F)C3)c(NC(=O)c3ccc(=O)n(-c4c(F)cccc4F)n3)ccc2n1C ; retrieve measured pIC50.
**A:** > 7.00

**Q:** Now consider CCn1cc(Oc2nc(-c3cc(C)c4c(c3)CN(C)CC4)cnc2N)cn1 and answer again.
**A:** 7.82

**Q:** One more compound: O=C1NC2(CCNC2)CN1c1cccc(-c2cnc3[nH]cc(C4CC4)c3c2Cl)c1 (centres unmarked)
**A:** 7.80

###

pIC50: −log10 of the molar value.
Consider the following pIC50 data for HPK1 (Homo sapiens (Human), UniProt Q92918), collected from several reports.

>>> value_measured("COc1cc(C2CCNCC2)ccc1Nc1ncc(C(N)=O)c(Nc2ccccc2C(F)(F)F)n1")
7.93

**Q:** Need pIC50, item CC1(c2ccc(F)c(-c3cc(Nc4ccc(N5CCC(O)CC5)cn4)c4c(=O)[nH]ccc4n3)c2)CC1
**A:** ≥ 7.00

**Q:** For C[C@H](c1ccc(Nc2ccc(-c3cnc4cc(F)ccn34)c3c2C(=O)NC3)nc1)N1CCC[C@H](O)C1 (stereo in doubt) then?
**A:** > 7.00

**Q:** Moving on to CNCc1ccc(F)c(-c2cc(Nc3ccc(N4CCC(O)CC4)cn3)c3c(=O)[nH]ccc3n2)c1
**A:** 6.00 to 7.00

**Q:** Entry CN1CCN(c2ccc3nc(-c4c(N[C@H]5CC[C@@H](O)CC5)c5sccc5[nH]c4=O)[nH]c3c2)CC1 please
**A:** ≥ 7.30

**Q:** Param item: CN(C)CCN1CCC(c2ccc(Nc3ccc(-c4cnc5cc(F)ccn45)c4c3C(=O)NC4)nc2)CC1=O (centres unmarked)
**A:** > 7.00

**Q:** Subsequent entry: CN1CCC[C@@H](c2cccc(Nc3cnc(-c4ccnc5c4ccn5C)c4c3C(=O)NC4)n2)C1
**A:** > 7.00

###

Compiled pIC50 measurements on HPK1 (Homo sapiens (Human), UniProt Q92918) taken from the literature.
pIC50: −log10 of the molar value.

Known pIC50 results, listed for orientation:
>>> value_measured("CN1CCN(c2ccc(Nc3ccc(-c4cc(C5CCOCC5)ncn4)c4c3C(=O)NC4)nc2)CC1")
"> 6.00"
>>> value_measured("COc1cc2c(cc1Nc1ncc3ccc(-c4cncc(C)c4)cc3n1)CNCC2")
8.01
>>> value_measured("Cc1ccn2c(-c3ccc(Nc4ccc(N5CCN(C)CC5)cn4)c4c3CNC4=O)cnc2c1")
"> 7.00"
>>> value_measured("COc1nn(C)cc1Nc1ncc(C(N)=O)c(Nc2cccc3c2CCNC3)n1")
8.93
>>> value_measured("C/C(Nc1cc(C)n(CC(C)(C)O)n1)=C1/C(=O)Nc2cnc(-c3cnccc3C)cc21")
"> 7.30"

**Q:** Recorded pIC50 for CC(=O)N1CCC(n2cc(N/C(C)=C3\C(=O)Nc4cnc(-c5cnccc5C)cc43)cn2)CC1 , please?
**A:** > 7.30

**Q:** Further, for Cc1cccc(F)c1-c1cc2c(-c3ccc4c(c3)OCC3CN(C)CCN43)n[nH]c2cc1C#N (stereo not shown) ?
**A:** 7.00 to 8.00

**Q:** What do we get for COc1cc2c(cc1Nc1ncc(C(N)=O)c(Nc3ccccc3C(=O)NC3CC3)n1)CN(C)CC2 ?
**A:** 8.56

**Q:** Moving on to the next compound: Cc1cc(F)c(-c2cc(Nc3ccc(N4CCC(O)CC4)cn3)c3c(=O)[nH]ccc3n2)cc1C(=O)N1CCCCC1
**A:** ≥ 7.00

**Q:** For Cn1ccc2c(-c3ncc(Nc4ccc([C@H]5CCOC5)c(CN)n4)c4c3CNC4=O)ccnc21 then?
**A:** > 7.00

**Q:** Here is the next compound: COCC1(O)CCN(c2ccc(Nc3ccc(-c4ccnc5c4ccn5C)c4c3C(=O)NC4)nc2)CC1
**A:** > 7.00

**Q:** Another: Cn1ccc2c(-c3ccc(Nc4cccc(N5CCC(O)CC5)n4)c4c3CNC4=O)ccnc21
**A:** 6.00 to 7.00

**Q:** Please give the result for COc1cc2c(cc1Nc1ncc(C(N)=O)c(Nc3ccccc3Br)n1)CN(C(=O)C1(C)CCC1)CC2 too.
**A:** 6.46

**Q:** Okay, and Cc1cc(-c2c[nH]c3ncc(-c4cc(C)c5c(c4)CN(CCC(=O)NCC4(O)CC4)CC5)nc23)ccc1C(=O)N(C)C ?
**A:** 7.15

**Q:** Moving on to CCS(=O)(=O)Cc1ccc(Nc2ncc3c(N)c(F)c(-c4cnc5c(c4C)NCCO5)cc3n2)c(F)c1
**A:** 10.05

**Q:** What do you get for Cc1cccc(F)c1-n1nc2c(-c3ccc(N4CCN(C)C(C(C)(C)O)C4)cc3)n[nH]c2cc1=O (stereo not shown) ?
**A:** ≥ 7.30
